- tested.on: LFA-1 (CD18/CD11a) binding to ICAM-1 (Homo sapiens, UniProt P05107+P20701)
- Construct: followed by purified LFA-1 (in buffer of 50 mM triethylamine, 150 mM NaCl, 1% beta octylglucoside)
- Sequence (P20701 26-1170): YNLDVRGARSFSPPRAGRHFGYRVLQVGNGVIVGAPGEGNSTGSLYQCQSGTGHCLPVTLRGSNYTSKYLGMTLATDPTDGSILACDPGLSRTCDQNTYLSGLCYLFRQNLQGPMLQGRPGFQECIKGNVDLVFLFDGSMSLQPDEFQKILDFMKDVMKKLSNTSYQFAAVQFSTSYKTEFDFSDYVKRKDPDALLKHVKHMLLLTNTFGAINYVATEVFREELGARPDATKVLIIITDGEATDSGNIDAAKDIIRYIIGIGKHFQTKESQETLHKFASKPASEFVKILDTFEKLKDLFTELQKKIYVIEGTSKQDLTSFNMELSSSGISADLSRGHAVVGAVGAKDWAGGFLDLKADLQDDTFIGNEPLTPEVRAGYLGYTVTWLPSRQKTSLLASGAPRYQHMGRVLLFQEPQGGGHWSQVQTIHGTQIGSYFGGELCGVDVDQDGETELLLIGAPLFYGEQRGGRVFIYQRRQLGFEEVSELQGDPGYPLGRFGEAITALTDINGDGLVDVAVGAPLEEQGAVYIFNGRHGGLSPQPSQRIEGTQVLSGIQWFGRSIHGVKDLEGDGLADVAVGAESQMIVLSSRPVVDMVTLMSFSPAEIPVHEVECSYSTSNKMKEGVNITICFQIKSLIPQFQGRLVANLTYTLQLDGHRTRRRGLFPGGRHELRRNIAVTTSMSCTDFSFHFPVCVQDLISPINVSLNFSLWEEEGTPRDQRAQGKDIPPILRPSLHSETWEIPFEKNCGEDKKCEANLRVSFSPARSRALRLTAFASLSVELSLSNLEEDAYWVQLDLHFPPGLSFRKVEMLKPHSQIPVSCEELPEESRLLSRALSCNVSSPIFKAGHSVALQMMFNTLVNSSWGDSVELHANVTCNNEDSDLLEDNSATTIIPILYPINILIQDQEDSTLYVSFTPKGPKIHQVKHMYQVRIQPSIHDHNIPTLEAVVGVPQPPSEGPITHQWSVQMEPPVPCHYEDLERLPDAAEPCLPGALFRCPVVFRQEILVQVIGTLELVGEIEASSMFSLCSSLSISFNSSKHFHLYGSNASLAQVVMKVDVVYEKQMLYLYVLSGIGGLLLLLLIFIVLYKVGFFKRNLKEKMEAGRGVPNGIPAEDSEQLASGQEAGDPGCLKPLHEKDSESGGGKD
- Sequence (P05107 23-769 partner): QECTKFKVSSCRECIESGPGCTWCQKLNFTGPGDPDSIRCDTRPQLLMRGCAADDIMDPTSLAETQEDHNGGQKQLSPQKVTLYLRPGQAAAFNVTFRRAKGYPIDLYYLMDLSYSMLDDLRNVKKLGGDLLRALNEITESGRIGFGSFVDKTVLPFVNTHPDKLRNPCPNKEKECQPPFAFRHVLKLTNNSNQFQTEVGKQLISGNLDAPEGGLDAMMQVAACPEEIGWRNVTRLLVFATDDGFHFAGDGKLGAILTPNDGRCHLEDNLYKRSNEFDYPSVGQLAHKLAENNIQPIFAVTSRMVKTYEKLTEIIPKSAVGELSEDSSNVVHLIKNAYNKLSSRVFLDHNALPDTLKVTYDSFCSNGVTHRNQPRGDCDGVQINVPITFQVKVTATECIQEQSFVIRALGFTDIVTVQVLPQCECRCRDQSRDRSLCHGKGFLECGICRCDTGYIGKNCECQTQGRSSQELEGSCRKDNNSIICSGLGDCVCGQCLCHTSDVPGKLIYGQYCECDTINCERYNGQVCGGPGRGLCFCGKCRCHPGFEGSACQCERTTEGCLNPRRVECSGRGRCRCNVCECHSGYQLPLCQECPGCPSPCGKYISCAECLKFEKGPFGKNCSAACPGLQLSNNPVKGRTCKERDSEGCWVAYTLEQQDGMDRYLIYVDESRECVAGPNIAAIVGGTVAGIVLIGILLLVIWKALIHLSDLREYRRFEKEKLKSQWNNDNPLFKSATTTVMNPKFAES
- test.description: LFA-1/Biotin-sICAM-1 AlphaScreen assay: inhibition of LFA-1 binding to ICAM-1
- assay.conditions: 37° C. 90 minutes, highest compound concentration 1 μM
pIC50: −log10 of the molar value.
property.label: pIC50

P = C[C@@]1(Cc2ccc(C#N)cc2)C(=O)N(c2cc(Cl)cc(Cl)c2)c2ncc(C(=O)NC3(C(=O)NC4(c5ccc(-c6ccc(S(N)(=O)=O)cc6)cn5)CC4)CC3)n21 [Compound 132]
Q = C[C@H](NC(=O)c1cnc2n1[C@](C)(Cc1ccc(C#N)cc1)C(=O)N2c1cc(Cl)c(F)c(Cl)c1)C(=O)NC1(c2ncc(-c3ccc(CO)nc3)cn2)CC1 [Compound 78]
Exam item: Of P and Q , whose reported pIC50 is the larger number? // caller expects the label of the chosen entry
Marked response: P

a = C[C@@]1(Cc2ccc(C#N)cc2)C(=O)N(c2cc(Cl)cc(Cl)c2)c2ncc(C(=O)NC3(C(=O)NC4(c5ccc(-c6ccc(F)nc6)cn5)CC4)CC3)n21 [Compound 58]
b = Cn1cc(-c2ccc(C3(NC(=O)C4(NC(=O)c5cnc6n5[C@](C)(Cc5ccc(C#N)cc5)C(=O)N6c5cc(Cl)cc(C(F)(F)F)c5)CC4)CC3)nc2)cn1 [Compound 51]
Exam item: Of a and b , whose reported pIC50 is the larger number? // caller expects the label of the chosen entry
Marked response: a
(a: 9.15, b: 8.92)

P = C[C@@]1(Cc2ccc(C#N)cc2)C(=O)N(c2cc(Cl)cc(Cl)c2)c2ncc(C(=O)NC3(C(=O)NC4(c5ccc(-c6ccc(CO)cc6)cn5)CC4)CC3)n21 [Compound 136]
Q = C[C@@]1(Cc2ccc(OC(F)(F)F)cc2)C(=O)N(c2cc(Cl)c(F)c(Cl)c2)c2ncc(C(=O)NC3(C(=O)NC4(c5ccc(-c6ccc(=O)[nH]c6)cn5)CC4)CC3)n21 [Compound 108]
Exam item: Of P and Q , whose reported pIC50 is the larger number? // caller expects the label of the chosen entry
Marked response: P

###

- tested.on: LFA-1 (CD18/CD11a) binding to ICAM-1 (Homo sapiens, UniProt P05107+P20701)
- Construct: followed by purified LFA-1 (in buffer of 50 mM triethylamine, 150 mM NaCl, 1% beta octylglucoside)
- test.description: LFA-1/Biotin-sICAM-1 AlphaScreen assay: inhibition of LFA-1 binding to ICAM-1
- assay.conditions: 37° C. 90 minutes, highest compound concentration 1 μM
pIC50: −log10 of the molar value.
property.label: pIC50

Sample answers from the record:
C[C@@]1(Cc2ccc(C#N)cc2)C(=O)N(c2cc(Cl)cc(Cl)c2)c2ncc(C(=O)NC3(C(=O)NC4(c5ccc(-c6ccc(NS(C)(=O)=O)cc6)cn5)CC4)CC3)n21
8.82
Cc1nn(C)cc1-c1ccc(C(C)NC(=O)C(NC(=O)c2cnc3n2C(C)(Cc2ccc(C#N)cc2)C(=O)N3c2cc(Cl)c(F)c(Cl)c2)C(C)O)nc1 (centres unmarked)
8.96
CC(O)C(NC(=O)c1cnc2n1C(C)(Cc1ccc(C#N)cc1)C(=O)N2c1cc(Cl)c(F)c(Cl)c1)C(=O)NC1(c2ccc(-c3cnn(C)c3)nc2)CC1 (centres unmarked)
8.96
C[C@@]1(Cc2ccc(C#N)cc2)C(=O)N(c2cc(Cl)cc(Cl)c2)c2ncc(C(=O)NC3(C(=O)NC4(c5ccc(-c6cccc(C(=O)O)c6)cn5)CC4)CC3)n21
9.14

P = C[C@H](NC(=O)c1cnc2n1[C@](C)(Cc1ccc(C#N)cc1)C(=O)N2c1cc(Cl)c(F)c(Cl)c1)C(=O)NC1(c2ccc(-c3cn[nH]c3)cn2)CC1
Q = Cc1nn(C)cc1-c1cnc(C2(NC(=O)C3(NC(=O)c4cnc5n4[C@](C)(Cc4ccc(C#N)cc4)C(=O)N5c4cc(Cl)c(F)c(Cl)c4)CC3)CC2)nc1
Exam item: Sorting ascending by pIC50, which comes first: P or Q ? // caller expects the label of the chosen entry
Marked response: Q

###

- tested.on: LFA-1 (CD18/CD11a) binding to ICAM-1 (Homo sapiens, UniProt P05107+P20701)
- Construct: followed by purified LFA-1 (in buffer of 50 mM triethylamine, 150 mM NaCl, 1% beta octylglucoside)
- test.description: LFA-1/Biotin-sICAM-1 AlphaScreen assay: inhibition of LFA-1 binding to ICAM-1
- assay.conditions: 37° C. 90 minutes, highest compound concentration 1 μM
property.label: IC50 (pM)

Sample answers from the record:
Cc1nn(C)c(C)c1-c1ccc(C2(NC(=O)C3(NC(=O)c4cnc5n4[C@](C)(Cc4ccc(C#N)cc4)C(=O)N5c4cc(Cl)c(F)c(Cl)c4)CC3)CC2)nc1
1100
C[C@@]1(Cc2ccc(C#N)cc2)C(=O)N(c2cc(Cl)c(F)c(Cl)c2)c2ncc(C(=O)NC3(C(=O)NC4(c5ccc(-c6ccc(CO)cc6)nn5)CC4)CC3)n21
890
C[C@@]1(Cc2ccc(C#N)cc2)C(=O)N(c2cc(Cl)cc(Cl)c2)c2ncc(C(=O)NC3(C(=O)NC4(c5ccc(-c6ccc(S(C)(=O)=O)cc6)cn5)CC4)CC3)n21
640

a = Cc1nn(C)cc1-c1ccc(C2(NC(=O)C3(NC(=O)c4cnc5n4[C@](C)(Cc4ccc(OC(F)(F)F)cc4)C(=O)N5c4cc(Cl)c(F)c(Cl)c4)CC3)CC2)cn1
b = C[C@@]1(Cc2ccc(C#N)cc2)C(=O)N(c2cc(Cl)c(F)c(Cl)c2)c2ncc(C(=O)NC3(C(=O)NC4(c5ncc(-c6ccc(O)cc6)cn5)CC4)CC3)n21
Exam item: Sorting ascending by IC50, which comes first: a or b ? // caller expects the label of the chosen entry
Marked response: a
